- TARGET SYSTEM: T1, recombinant human CLEC-1 protein with His Tag (#1704-CL R&D Systems) (human, UniProt Q8NC01 74-280)
- T1 construct: Bought protein; also called His-CLEC1; His Clec-1; not shown: His tag
- T1 sequence: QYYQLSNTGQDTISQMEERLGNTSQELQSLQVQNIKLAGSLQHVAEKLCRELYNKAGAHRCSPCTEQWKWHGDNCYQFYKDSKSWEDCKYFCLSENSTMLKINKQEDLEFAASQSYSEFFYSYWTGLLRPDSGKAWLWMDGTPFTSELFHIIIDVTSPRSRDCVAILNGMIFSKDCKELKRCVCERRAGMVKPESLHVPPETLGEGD
- ASSAY NAME: Blitz biolayer interferometry, His-CLEC1 on Ni-NTA biosensor, antibody at 20 ug/mL

- BINDER: "chimeric anti-CLEC-1A antibody 11H11 (antibody, human IgG4 S228P, kappa, V domains shown, also called 11H11chim; 11H11-VHwt-FcG4m / 11H11-VLwt-CLhk) VH: QIHLVQSGPELKKPGETVKISCKASGYTFTNFGMNWVKQAPGKGLKWMGWINTNTGEPTYADDFKGRFAFSLETSASTAYLQINNLKNEDTATYFCARGAPAWFTYWGQGTLVTVSA VL: DIQMTQSPASLSASVGETVTITCRATENIYSYLAWYQQKQGKSPQFLVYNAKTLAEGMPSRFSGSGSGTQFSLKINILQPEDFGTYYCQHHFGTPLTFGAGTKLELKR"
  kon, M⁻¹ s⁻¹: 188000
- BINDER: "chimeric anti-CLEC-1A antibody 15E3 (antibody, human IgG4 S228P, kappa, V domains shown, also called 15E3chim; 15E3-VHwt-FcG4m / 15E3-VLwt-CLhk) VH: QVQLQQSGPELVKPGASVKMSCKASGFTFTDYVIAWVKVRTGQGLEWIGEIYPGSGSIYYNEKFKGKATLTADKSSNTAYMQLSSLTSEDSAVYFCASSTVVAFDYWGQGTTLTVSS VL: EIVLTQSPTTLAASPGEKIIITCSDSSSISSNYLHWYQQKPGFSPKLLIYGTSNLASGVPARFSGSGSGTTYSLTIGTMEAEDVATYYCQQGSSIPRTFGGGTKLEIKR"
  kon, M⁻¹ s⁻¹: 15700
- BINDER: "chimeric anti-CLEC-1A antibody 5D1 (antibody, human IgG4 S228P, kappa, V domains shown, also called 5D1chim; 5D1-VHwt-FcG4m / 5D1-VLwt-CLhk) VH: QVQLKESGPGLVAPSQSLSITCTISGFSLTSYGVHWVRQPPGKGLEWLVVIWSDGSTIYNSALKSRLSISKDNSKSQVFLKMNSLQTDDTAMYYCARHGGYYNYFDYWGQGTTLTVSS VL: DIQMNQSPSSLSASLGDTITITCHASQNINVWLSWYQQKPGNIPKLLIYKASNLHTGVPSRFSGSGSGTGFTLTISSLQPEDIATYYCQQGQSYWTFGGGTKLEIKR"
  kon, M⁻¹ s⁻¹: 68900
- BINDER: "chimeric anti-CLEC-1A antibody 14H9 (antibody, human IgG4 S228P, kappa, V domains shown, also called 14H9chim; 14H9-VHwt-FcG4m / 14H9-VLwt-CLhk) VH: QVQLKESGPGLVAPSQSLSITCTISGFSLTTYGIHWVRQPPGKGLEWLVVIWSDGSTIYNSALKSRLSISKDNSKSQVFLKMNSLQTDDTAIYYCARHGGYYNYFDYWGQGTTLTVSS VL: DIQMNQSPSSLSASLGDTITITCHASQNINVWLSWYQQKPGNIPKLLIYKASNLHTGVPSRFSGSGSGTTFTLTIDSLQPEDIATYYCQQGQSYWTFGGGTKLEIKR"
  kon, M⁻¹ s⁻¹: 78000
